# TGI listing for each entry below
system: M19-MEL melanoma; test: NCI tumour cell line growth inhibition, 48 h

Example compounds with recorded TGI:
compound	outcome_measure	recorded_measurement
CC1(C)OC(C[C@]2(C#N)C[C@H](CCl)OC(C)(C)O2)C[C@@H](C[C@]2(C#N)C[C@H](CCl)OC(C)(C)O2)O1 (some centres not stated)	TGI	> 100 µM
CCSC1(SCC)CC(Cc2ccc(OC)cc2)N(C=NC(C)(C)C)C1 (configuration not stated)	TGI	97.7 µM
CC(=O)O[C@]1(C)OC(=O)[C@@H](C)N1[N+](=O)[O-]	TGI	> 100 µM

Q) Please give measured TGI of the following entry: Cc1ccc(S(=O)(=O)N/N=c2\c(C)c(C3=NS(=O)(=O)c4cc(S(N)(=O)=O)c(Cl)cc4N3)oc3c(Cl)cc(Cl)cc23)cc1
A) > 100 µM

Q) Please report TGI for the following compound: O=C1N(c2ccccc2)C(=O)C2(SC=NN2Cc2ccccc2)N1c1ccccc1 (configuration not stated)
A) > 100 µM

Q) Report measured TGI; entry is COc1c(NC(C)=O)cc(C)cc1NC(C)=O
A) > 100 µM

Q) Item Oc1c2c(c3c4c1N=CC=4CCN=3)-c1c(Br)cc(Br)cc1CCN2 : provide TGI
A) 3.33 µM

Q) Return value of TGI for input O=C1CCCC/C1=C1\C(=O)Nc2cc(F)ccc21 , no commentary.
A) > 100 µM

Q) Indicate its recorded TGI; the compound in question is O=c1cccccc1NCCCCCCNc1cccccc1=O
A) > 100 µM

Q) Return the recorded TGI value; entry: Cc1c(-c2nnc(-c3ccc(Cl)cc3)o2)c(=O)n(-c2ccccc2)n1C
A) > 100 µM

Q) Answer with the recorded TGI for the compound listed here: CC(C)(C)CC(C)(C)c1cc2c(O)c(c1)Cc1cc(C(C)(C)CC(C)(C)C)cc(c1O)Cc1cc(C(C)(C)CC(C)(C)C)cc(c1O)Cc1cc(C(C)(C)CC(C)(C)C)cc(c1O)Cc1cc(C(C)(C)CC(C)(C)C)cc(c1O)Cc1cc(C(C)(C)CC(C)(C)C)cc(c1O)C2
A) > 100 µM

Q) Given the compound COc1cc(-c2cc(=O)c3c(O)c(OC)c(OC)c(OC)c3o2)ccc1O , write its reported TGI.
A) > 100 µM

Provenance of the data: PubChem BioAssay (NCI)
